- measured on: KRAS(G12D)/SOS1 (Homo sapiens, UniProt P01116, G12D)
- Sequence (P01116 1-188 isoform P01116-2 G12D): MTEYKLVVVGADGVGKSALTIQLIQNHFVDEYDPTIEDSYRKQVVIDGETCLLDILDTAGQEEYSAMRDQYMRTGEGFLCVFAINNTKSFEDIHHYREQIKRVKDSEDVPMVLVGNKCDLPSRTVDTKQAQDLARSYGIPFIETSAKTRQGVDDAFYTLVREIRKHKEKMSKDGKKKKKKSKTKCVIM
- protocol details: KRAS(G12D)/SOS1 homogeneous time-resolved fluorescence (HTRF) assay
- reported conditions: absence of GTP; 4° C., 3 hr
- Experimental: Binding of test compounds to KRAS(G12D) target protein, which in turn blocks KRAS(G12D) interaction with the SOS1 protein, was measured in the absences of GTP by homogeneous time-resolved fluorescence using the KRAS-G12D/SOS1 Binding Assay Kit (Cisbio, 63ADK000CB17PEH), following the manufacturer's instructions, except as noted. 3-fold serial dilutions of each test compound were prepared ranging from 20 µM to 1.02 nM. […]
measured property: IC50

# compound, measured on, IC50
data = [
    ("CCc1cc(-c2nnc(C(=O)NCC(F)(F)F)n2-c2ccc(CN3CCN(C[C@H]4CC[C@@H](COc5nc(N6CC7CCC(C6)N7)c6cnc(-c7cc(C)cc8ccccc78)c(F)c6n5)N4C)CC3)cc2)c(O)cc1O", "KRAS(G12D)/SOS1 (Homo sapiens, UniProt P01116, G12D)", "< 100 nM"),
    ("C#Cc1cccc2cccc(-c3ncc4c(N5CC6CCC(C5)N6)nc(OC[C@@H]5CC[C@H](CN6CCN(Cc7ccc8c(c7)CN(C(=O)c7cc(C(C)C)c(O)cc7O)C8)CC6)N5C)nc4c3F)c12", "KRAS(G12D)/SOS1 (Homo sapiens, UniProt P01116, G12D)", "< 100 nM"),
    ("C#Cc1cccc2cccc(-c3ncc4c(N5CC6CCC(C5)N6)nc(OCCN5CCN(Cc6ccc(-n7c(O)nnc7-c7cc(C(C)C)c(O)cc7O)cc6)CC5)nc4c3F)c12", "KRAS(G12D)/SOS1 (Homo sapiens, UniProt P01116, G12D)", "100 to 1000 nM"),
    ("C#Cc1cccc2cc(O)cc(-c3ncc4c(N5CC6CCC(C5)N6)nc(OCC5(CN6CCC(OC7CCN(Cc8ccc(-n9c(C(=O)NCC(F)(F)F)nnc9-c9cc(C(C)C)c(O)cc9O)cc8)CC7)CC6)CC5)nc4c3F)c12", "KRAS(G12D)/SOS1 (Homo sapiens, UniProt P01116, G12D)", "< 100 nM"),
]

Continue with the compound presented below.
Using KRAS(G12D)/SOS1 (Homo sapiens, UniProt P01116, G12D) as the test system, report measured IC50 of C#Cc1cccc2cc(O)cc(-c3ncc4c(N5CC6CCC(C5)N6C(C)=O)nc(OCC5(CN6CCN(CC7CCN(Cc8ccc(-n9c(C(=O)NC(C)C(F)(F)F)nnc9-c9cc(C(C)C)c(O)cc9O)cc8)CC7)CC6)CC5)nc4c3F)c12 (centres unmarked) . 100 to 1000 nM
